Assay: Quantitative High-Throughput drug screen in 47 multiple myeloma cell lines against the NCATS MIPE library collection: U266_ATCC cell viability assay (AID 1919864); also: nearly all actives have a fitted effect of over 35% in size
Conditions: U266 myeloma viability, CellTiter-Glo ATP luminescence, 48 h; series mostly up to 45.8 µM
Inconclusive results are not listed. Activity calls are given as the source filed them. Calls follow the shape of the dose curve; as a rule, active = well fitted cell-killing curve with a large enough effect; inconclusive = small, poorly fitted or top-dose-only effect, or effect the other way; inactive = no such curve, though single readings can be large or run the other way.
Entry note: the call must match one of yes (1) for active, no (0) for inactive

Recorded results for 3 compounds are shown here.
compound: C[C@@H](NC(=O)c1ncnc(N)c1Cl)c1ncc(C(=O)Nc2cc(C(F)(F)F)c(Cl)cn2)s1
answerLabel: yes (1)
--
compound: Cc1cc2c(cc1C1(c3ccc(C(=O)O)cn3)CC1)C(C)(C)CCC2(C)C
answerLabel: no (0)
--
compound: NS(=O)(=O)c1ccc(Nc2nc(OCC3CCCCC3)c3[nH]cnc3n2)cc1
answerLabel: yes (1)

-- ask What did this assay record as the result for OC[C@H]1O[C@@H](O[C@H]2[C@@H](O)[C@@](O)(CO)O[C@@H]2CO)[C@H](O)[C@@H](O)[C@@H]1O ?
-- reply no (0)

-- ask // return assay outcome for CC1C(=O)OC2C(O)C34C5CC(C(C)(C)C)C36C(OC(=O)C6O)OC4(C(=O)O5)C12O (stereo not drawn)
-- reply no (0)

-- ask Called result for NC1(C(=O)N[C@@H](CCO)c2ccc(Cl)cc2)CCN(c2ncnc3[nH]ccc23)CC1
-- reply yes (1)

-- ask Give the logged outcome of this assay for the following compound: CN(C)c1nc(Cc2ccc(NC(=O)c3ccc(C(F)(F)F)cc3)cc2)nc(N(C)C)c1CC(=O)O
-- reply no (0)

-- ask # lookup: test call for CCOC(=O)N1CCN([N+]([O-])=NOc2cc(ON=[N+]([O-])N3CCN(C(=O)OCC)CC3)c([N+](=O)[O-])cc2[N+](=O)[O-])CC1
-- reply yes (1)

-- ask Please share the test call associated with CC(C)[C@H](O)C(=O)N[C@@H](C)C(=O)N[C@@H]1C(=O)N(C)CCc2ccccc21 .
-- reply no (0)

-- ask I would be grateful if you could indicate the recorded call for CN[C@@H]1[C@@H](O)[C@@H](O[C@@H]2[C@@H](O)[C@H](O[C@H]3O[C@H](CN)[C@@H](O)[C@H](O)[C@@H]3O)[C@@H](N)C[C@@H]2NC(=O)[C@@H](O)CN)OC[C@]1(C)O .
-- reply yes (1)

---

# Potency values compiled below
Test: Quantitative High-Throughput drug screen in 47 multiple myeloma cell lines against the NCATS MIPE library collection: SKMM1_PLB cell viability assay (AID 1919863); also: potency is read from the fitted curve at half-maximal effect; nearly all actives have a fitted effect of over 35% in size
Conditions: SKMM1 myeloma viability, CellTiter-Glo ATP, 48 h
Results filed as inconclusive are left out. Calls of active or inactive are those of the source. Calls come from the whole dose curve; as a rule, active = well fitted cell-killing curve with a large enough effect; inconclusive = small, poorly fitted or top-dose-only effect, or effect the other way; inactive = no such curve, though single readings can be large or run the other way.

For orientation, consider the following solved cases.
compound: C[C@]12C=CC(=O)C=C1CC[C@@H]1[C@@H]2[C@@H](O)C[C@@]2(C)[C@@H]1CC[C@]2(O)C(=O)CO
Potency: 1.48 µM (active)

compound: CN(C)CCN(C)C(=O)c1ccc(NC(=O)Nc2ccc(-c3nc(N4CCOCC4)c4ccn(CC(F)(F)F)c4n3)cc2)cc1
Potency: 0.209 µM (active)

compound: O=C(O)Cc1cccc(OCCCN(Cc2cccc(C(F)(F)F)c2Cl)CC(c2ccccc2)c2ccccc2)c1
Potency: 11.8 µM (active)

compound: CCC[C@H](N[C@@H](C)C(=O)N1[C@@H]2CCCC[C@H]2C[C@H]1C(=O)O)C(=O)OCC
Potency: 18.7 µM (active)

compound: CCNC(=O)Nc1ccc(Oc2ncnc(N)c2C=NOC)cc1Cl
Potency: 11.8 µM (active)

compound: COC(=O)Nc1ccc(-c2nc(N3CCOCC3)c3cnn(C4CCN(C(=O)OC)CC4)c3n2)cc1
Potency: 11.8 µM (active)

compound: Cc1ccc(NC(=O)c2ccc(CN3CCN(C)CC3)cc2)cc1Nc1nc(-c2cccnc2)cs1
Potency: 23.5 µM (active)

compound: C=CC(=O)Nc1cccc(Sc2nc(Nc3ccc(N4CCN(C)CC4)cc3)ncc2Cl)c1
Potency: 37.2 µM (active)

-- ask Specify reported Potency for the compound shown: CCC(C)SSc1ncc[nH]1 (stereo not given)
-- reply 11.8 µM (active)

-- ask Please report the measured Potency for CNC(=O)c1cc(Oc2ccc(NC(=O)Nc3ccc(Cl)c(C(F)(F)F)c3)c(F)c2)ccn1
-- reply 20.9 µM (active)

-- ask // Input: Cc1cnc(CNC(=O)c2c(=O)c3ccc(N4CCCN(C)CC4)nc3n3c2sc2ccccc23)cn1 . Output its Potency only.
-- reply 5.75 µM (active)

-- ask Answer with the recorded Potency for the compound listed here: CN(C)CCOc1ccc(-c2nc(-c3ccc4c(c3)CCC4=NO)c(-c3ccncc3)[nH]2)cc1
-- reply 20.9 µM (active)

-- ask Return reported Potency. Input compound: CC(=O)NCCC(=O)N[C@@H](CCC(N)=O)C(=O)N[C@@H](CO)C(=O)N[C@@H](CCC(N)=O)C(=O)N[C@@H](CCC(N)=O)C(=O)N[C@H](C(=O)N[C@@H](Cc1ccccc1)C(=O)N[C@]1(C)CCCCCCC=CCCC[C@@](C)(C(=O)N[C@@H](CCC(N)=O)C(=O)N[C@@H](CC(N)=O)C(N)=O)NC(=O)[C@H](CC(C)C)NC(=O)[C@H](CC(C)C)NC(=O)[C@@H](CCCNC(=N)N)NC(=O)[C@H](Cc2c[nH]c3ccccc23)NC(=O)[C@H](CC(C)C)NC(=O)[C@H](CC(N)=O)NC1=O)[C@H](C)O
-- reply 16.6 µM (active)

-- ask Give a short answer stating reported Potency for COc1ccc(-c2oc3c(CC=C(C)C)c(O)cc(O)c3c(=O)c2O)cc1 .
-- reply 20.9 µM (active)

-- ask Please report the measured Potency for CCN(CC)CCCCNc1nc2cc(Cl)c(Cl)cc2nc1-c1ccc(-c2cccs2)s1
-- reply 16.6 µM (active)
